Reference for the values: paper PMC9865163

# system.name: Fn1419 (Fusobacterium nucleatum subsp. nucleatum, UniProt Q8RDT4)
# Construct: Fn1419 (GeneBank: AAL95612.1, residues 1–395); His-tag (N); made in house; host or cells: E. coli BL21 (DE3)
# Sequence (Q8RDT4 whole entry, the tested form may be a part): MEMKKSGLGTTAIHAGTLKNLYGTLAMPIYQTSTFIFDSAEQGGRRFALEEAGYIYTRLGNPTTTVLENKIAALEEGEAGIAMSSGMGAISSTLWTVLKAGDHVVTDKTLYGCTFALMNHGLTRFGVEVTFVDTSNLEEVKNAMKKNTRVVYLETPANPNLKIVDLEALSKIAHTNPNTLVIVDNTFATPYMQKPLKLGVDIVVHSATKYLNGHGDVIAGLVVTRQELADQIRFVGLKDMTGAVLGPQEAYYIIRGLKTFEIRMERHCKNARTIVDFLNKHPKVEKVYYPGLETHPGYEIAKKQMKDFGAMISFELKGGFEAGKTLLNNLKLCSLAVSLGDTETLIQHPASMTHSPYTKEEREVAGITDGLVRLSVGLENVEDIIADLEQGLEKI
# assay.details: IC50 determination on MGL^Cys activity of Fn1419
# Type: biochemical
measured.endpoint: IC50 (µM)

- compound: "O=C(O)c1cc(O)c(O)c(O)c1 [gallic acid]"
  value: 121
- compound: "Oc1cccc(O)c1O [pyrogallic acid]"
  value: 57

====

IC50 overview
# system.name: Fn1419 (Fusobacterium nucleatum subsp. nucleatum, UniProt Q8RDT4)
# Construct: Fn1419 (GeneBank: AAL95612.1, residues 1–395); His-tag (N); made in house; host or cells: E. coli BL21 (DE3)
# assay.details: IC50 determination on MGL^Cys activity of Fn1419
# Format: biochemical
# assay.context: 5.75 nM enzyme, preincubation 20 min at 20 °C; read-out: IC50 (Fn1419 MGL^Cys activity)
measured.endpoint: IC50 (µM)

- molecule: "CCOC(=O)c1cc(O)c(O)c(O)c1 [ethyl gallate]"
  uom: "µM"
  value: 517
- molecule: "O=C1c2c(O)cc(O)cc2O[C@H](c2cc(O)c(O)c(O)c2)[C@H]1O [dihydromyricetin]"
  uom: "µM"
  value: 23
